- assay.remarks: TROY pathway blockers in reporter cells – Q293 LMP1-TROYcd cells, NF-kB luciferase, uHTS, primary screen (AID 1347056)
- test.parameters: 4 h, at 10 µM
Out of some 360,000 compounds screened, about 3,600 (1%) were called active.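 How the source made its calls: active means compounds whose plate-normalised and pattern-corrected inhibition of the luciferase reporter signal at the single screening dose is 50% or more; inactive means the rest.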 Many of the other results were omitted from the sample, so actives are more common in it than they were.
Possible outcomes: true (1) for active, false (0) for inactive

> print(dat)
                                    compound  label.value
 1  CCCCC(=O)Nc1c2c(nn1-c1ccc([N+](=O)[O-])cc1)CS(=O)(=O)C2    false (0)
 2         O=C(O)CSCC(=O)Nc1ccc(C(F)(F)F)cc1    false (0)
 3  CCOc1ccc(NS(=O)(=O)c2ccc(Cl)c(C(=O)N(C)Cc3cccnc3)c2)cc1    false (0)
 4          Cc1ccsc1C(=O)OCC(=O)Nc1cccc(F)c1    false (0)
 5        CCOC(=O)Cc1c(C)nc2c(C#N)c(C)nn2c1C    false (0)
 6          C=CCn1c(C)cc(C2=NNC(=NCC)SC2)c1C     true (1)
 7  CC(C)c1ccc2c(c1)c(SC(C)(C)C)c(CC(C)(C)C(=O)O)n2Cc1ccc(Cl)cc1     true (1)
 8  Cc1ccccc1OCCC(=O)Nc1c(C)n(C)n(-c2ccccc2)c1=O    false (0)
 9  Cc1ccc(S(=O)(=O)Oc2ccc(/C=N/NC(=O)c3c(Cl)cnn3C)cc2)cc1    false (0)
10               Nc1ccc(-n2nncc2-c2ccco2)cc1    false (0)
11  CC(C)NC(=O)N1Cc2cc(C(=O)NCC(F)(F)F)nc(-c3cccc(-c4cc5ccccc5o4)c3)c2[C@@H]1CCO    false (0)
12      O=C(Nc1ccc(N2CCOCC2)nc1)c1c(F)cccc1F    false (0)
13  O=C1c2ccccc2S(=O)(=O)c2cc(N3CCN(c4ccccn4)CC3)ccc21     true (1)
14   O=c1[nH][nH]c(C(F)(F)F)c1C=NCc1ccccc1Cl    false (0)
15  Cc1cnc(CN(C)C(=O)CC2C(=O)NCCN2Cc2cccc(F)c2F)[nH]1 (stereo not given)    false (0)
16  Cc1ccc(S(=O)(=O)N2CCCCC2)cc1NC(=O)CCNC(=O)c1ccccc1    false (0)
17           Cc1ccsc1C(=O)OCC(=O)NCCc1ccccc1    false (0)
18  COCCNc1ncnc2c1ncn2[C@H]1CN(Cc2ccc(OC)cc2)C[C@@H](CO)O1    false (0)
19     O=C(O)c1ccc(Cn2cnc3c(=S)nc[nH]c32)cc1    false (0)
20           CCCCC(=O)Nc1ccc2c(c1)C(=O)NC2=O    false (0)
21           c1c2c(cc3sc(N4CCCCC4)nc13)OCCO2     true (1)
22  O=C1/C(=C\c2ccc([N+](=O)[O-])cc2)CS(=O)(=O)C/C1=C/c1ccc([N+](=O)[O-])cc1     true (1)
23  Cc1cccc2nc(CSc3nc4[nH]ncc4c(=O)n3-c3cccc(Cl)c3)cc(=O)n12    false (0)
24  COc1ccc(Br)cc1CN1CCN(C(=O)c2cccc(OC)c2OC)CC1    false (0)
25  CC1=NN(C(=O)CCCc2ccccc2)C(O)(C(F)(F)F)C1 (stereo not given)    false (0)
26  Cc1noc(C)c1C(=O)NC(C)c1ccc2c(c1)OCO2 (stereo not given)    false (0)
27               O=C(CC1CCCCC1)NCc1ccc(F)cc1    false (0)
28  C/C(=N\NS(=O)(=O)c1ccc(Cl)cc1)c1ccc(NC(=O)c2ccco2)cc1    false (0)
29  N#Cc1ccccc1NC(=O)COc1c(Br)cc(Br)c2cccnc12    false (0)
30          COCc1cc(C)nc(Nc2cc(C)ccc2C)c1C#N    false (0)
31  COC(=O)[C@]1(C)N[C@H](CN(C)C(=O)c2ccc(C(C)(C)C)cc2)[C@@H]2C(=O)N(C)C(=O)[C@@H]21    false (0)
32  CC1=CC=CN2C1=NC(=O)CC2(C)C(=O)N(CC(=O)NC1CCCC1)c1ccccc1C (stereo not given)    false (0)
33  COC(=O)c1cc(OC)c(OC)cc1NC(=O)CSc1ccc(C)cc1    false (0)
34  CN(C(=O)COc1ncnc2c1cnn2-c1ccccc1)C1CCCCC1    false (0)
35  CC(=O)c1c(C)[nH]c(C(=O)COC(=O)CCOc2ccc(C)cc2)c1C    false (0)
